subjectOfTest: SARS-CoV-2 spike on Omicron pseudovirus (GFP-expressing) (SARS-CoV-2 Omicron) (UniProt P0DTC2)
protocolText: flow cytometry, bead-bound aptamer
conditionDescription: 5' hexynyl
attributeMeasured: Kd (pM)
Respond with the bare value in pM.

Kd measured on TTTTTATCCAGAGTGACGCAGCACCGACCTTGTGCTTTGGGAGTGCTGGTCCAAGGGCGTTAATGGACACGGTGGCTTAGT [Omicron Particle Aptamer] = 0.01

---

subjectOfTest: SARS-CoV-2 spike on Omicron pseudovirus (GFP-expressing) (SARS-CoV-2 Omicron) (UniProt P0DTC2)
protocolText: flow cytometry, bead-bound aptamer
conditionDescription: 5' hexynyl-iSp18-iSp18-iSp18 (PEG spacer)
attributeMeasured: Kd (pM)
Respond with the bare value in pM.

Kd measured on ATCCAGAGTGACGCAGCACCGACCTTGTGCTTTGGGAGTGCTGGTCCAAGGGCGTTAATGGACACGGTGGCTTAGT [Omicron PEG36 Particle Aptamer] = 0.007
